- STUDY_SYSTEM: STK17A (human) (UniProt Q9UEE5)
- Sequence (Q9UEE5 whole entry, looked up): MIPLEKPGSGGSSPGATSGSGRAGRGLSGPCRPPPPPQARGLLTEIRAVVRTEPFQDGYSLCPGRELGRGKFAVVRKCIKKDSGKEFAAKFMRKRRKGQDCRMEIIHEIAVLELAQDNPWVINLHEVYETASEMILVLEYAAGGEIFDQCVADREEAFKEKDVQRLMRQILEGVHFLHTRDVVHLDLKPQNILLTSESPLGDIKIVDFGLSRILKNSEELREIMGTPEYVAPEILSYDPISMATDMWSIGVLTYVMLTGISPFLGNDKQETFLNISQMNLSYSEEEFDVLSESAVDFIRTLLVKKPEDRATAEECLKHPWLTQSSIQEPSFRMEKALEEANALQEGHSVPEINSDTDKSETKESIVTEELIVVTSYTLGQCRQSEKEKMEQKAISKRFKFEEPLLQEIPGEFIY
- EXPERIMENT: radiometric filter-binding kinase assay, Kinase HotSpot
- SETUP_CONDITIONS: compound 0.5 µM; ATP 10 µM
ASSAY_ENDPOINT: residual activity (%)

[[record]]
smi = "COc1cc2c(N3CCN(C(=O)Nc4ccc(OC(C)C)cc4)CC3)ncnc2cc1OCCCN1CCCCC1"
endpoint_unit = "%"
value_measured = 103

[[record]]
smi = "O=C(O)c1ccc2c3c1cccc3c(=O)n1c3ccccc3nc21"
endpoint_unit = "%"
value_measured = 73.4

[[record]]
smi = "COc1cccc(-c2cc(=O)c3ccccc3o2)c1N"
endpoint_unit = "%"
value_measured = 96.9

[[record]]
smi = "N#C/C(=C1/Nc2ccccc2S1)c1ccnc(NCCc2cccnc2)n1"
endpoint_unit = "%"
value_measured = 94

[[record]]
smi = "O=C1NC(=O)c2c1c1c3ccccc3[nH]c1c1[nH]c3cc(Br)ccc3c21"
endpoint_unit = "%"
value_measured = 29.5

[[record]]
smi = "c1ccc(-c2cnc(Nc3ccc(OCCN4CCCC4)cc3)s2)cc1"
endpoint_unit = "%"
value_measured = 66.2

[[record]]
smi = "O=C1NC(=O)c2cc(Nc3ccc(F)cc3)c(Nc3ccc(F)cc3)cc21"
endpoint_unit = "%"
value_measured = 104

[[record]]
smi = "O=C(c1ccccc1)c1ccc(N2CCOCC2)cc1O"
endpoint_unit = "%"
value_measured = 97.9

[[record]]
smi = "COc1cc2ncnc(Nc3ccc(O)c(Br)c3)c2cc1OC"
endpoint_unit = "%"
value_measured = 72.3

[[record]]
smi = "FC(F)(F)c1ccc(/C=C/c2nc(COc3ccc(CCCCn4ccnn4)cc3)co2)cc1"
endpoint_unit = "%"
value_measured = 103

[[record]]
smi = "O=S(=O)(NCCNC/C=C/c1ccc(Br)cc1)c1cccc2cnccc12"
endpoint_unit = "%"
value_measured = 100


====

- STUDY_SYSTEM: CLK1 (human) (UniProt P49759)
- Sequence (P49759 whole entry, looked up): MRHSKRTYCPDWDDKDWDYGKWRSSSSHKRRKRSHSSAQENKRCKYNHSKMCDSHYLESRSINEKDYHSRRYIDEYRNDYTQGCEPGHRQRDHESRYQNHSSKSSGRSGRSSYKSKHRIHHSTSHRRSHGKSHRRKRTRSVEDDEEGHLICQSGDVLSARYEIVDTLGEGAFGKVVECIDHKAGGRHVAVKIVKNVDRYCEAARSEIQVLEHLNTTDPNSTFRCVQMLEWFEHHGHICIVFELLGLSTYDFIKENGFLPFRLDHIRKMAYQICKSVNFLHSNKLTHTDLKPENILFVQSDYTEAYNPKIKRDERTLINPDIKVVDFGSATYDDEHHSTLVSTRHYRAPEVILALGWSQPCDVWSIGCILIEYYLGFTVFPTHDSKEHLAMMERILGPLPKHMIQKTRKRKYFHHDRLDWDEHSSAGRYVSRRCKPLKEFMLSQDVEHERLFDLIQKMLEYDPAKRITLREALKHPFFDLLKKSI
- EXPERIMENT: radiometric filter-binding kinase assay, Kinase HotSpot
- SETUP_CONDITIONS: compound 0.5 µM; ATP 10 µM
Items are presented alongside their recorded residual activity.
ASSAY_ENDPOINT: residual activity (%)

[[record]]
smi = "O=C1NC(=O)c2c1c1c3ccccc3[nH]c1c1[nH]c3cc(Br)ccc3c21"
assay_endpoint = "residual activity"
value_measured = 97

[[record]]
smi = "O=c1[nH]c2ccccc2n1C1CCN(Cc2ccc(-c3nc4cc5[nH]cnc5cc4nc3-c3ccccc3)cc2)CC1"
assay_endpoint = "residual activity"
value_measured = 109

[[record]]
smi = "N#C/C(=C1/Nc2ccccc2S1)c1ccnc(NCCc2cccnc2)n1"
assay_endpoint = "residual activity"
value_measured = 75.4

[[record]]
smi = "COc1cc2ncnc(Nc3ccc(O)c(Br)c3)c2cc1OC"
assay_endpoint = "residual activity"
value_measured = 77.2

[[record]]
smi = "N#Cc1c(NC(=O)c2cccc3ccccc23)sc2c1CCCC2"
assay_endpoint = "residual activity"
value_measured = 99.2

[[record]]
smi = "COc1cc2c(N3CCN(C(=O)Nc4ccc(OC(C)C)cc4)CC3)ncnc2cc1OCCCN1CCCCC1"
assay_endpoint = "residual activity"
value_measured = 72.4

[[record]]
smi = "O=c1c2ccccc2[nH]c(=S)n1CCN1CCC(=C(c2ccc(F)cc2)c2ccc(F)cc2)CC1"
assay_endpoint = "residual activity"
value_measured = 113

[[record]]
smi = "Nc1ncnc2c1cnn2-c1ccccc1"
assay_endpoint = "residual activity"
value_measured = 91.8

[[record]]
smi = "N/C(=N\\N=C/c1ccc(-c2cccc([N+](=O)[O-])c2)o1)N[N+](=O)[O-]"
assay_endpoint = "residual activity"
value_measured = 105

[[record]]
smi = "Cn1cc(/C=C2\\C(=O)Nc3ccc(S(N)(=O)=O)cc32)c2ccccc21"
assay_endpoint = "residual activity"
value_measured = 88.3

[[record]]
smi = "O=C(O)c1ccc2c3c1cccc3c(=O)n1c3ccccc3nc21"
assay_endpoint = "residual activity"
value_measured = 93.8

[[record]]
smi = "Cc1cc(Nc2nc(-c3ccccc3)nc3ccccc23)n[nH]1"
assay_endpoint = "residual activity"
value_measured = 74

[[record]]
smi = "O=C(c1ccccc1)c1ccc(N2CCOCC2)cc1O"
assay_endpoint = "residual activity"
value_measured = 108

[[record]]
smi = "O=C1NC(=O)c2cc(Nc3ccc(F)cc3)c(Nc3ccc(F)cc3)cc21"
assay_endpoint = "residual activity"
value_measured = 102

[[record]]
smi = "c1ccc(-c2cnc(Nc3ccc(OCCN4CCCC4)cc3)s2)cc1"
assay_endpoint = "residual activity"
value_measured = 89.4

[[record]]
smi = "COc1cc2c(Nc3ccc(Br)cc3F)ncnc2cc1OCC1CCN(C)CC1"
assay_endpoint = "residual activity"
value_measured = 105

[[record]]
smi = "CCc1nc(-c2ccc(OC)cc2)[nH]c1-c1ccncc1"
assay_endpoint = "residual activity"
value_measured = 105

[[record]]
smi = "COc1cc2c(cc1OC)-c1[nH]nc(Nc3cccc(F)c3)c1C2"
assay_endpoint = "residual activity"
value_measured = 102

[[record]]
smi = "CCCCc1c(-c2ccc(O)cc2)[nH]c2nccnc12"
assay_endpoint = "residual activity"
value_measured = 97.9

[[record]]
smi = "FC(F)(F)c1ccc(/C=C/c2nc(COc3ccc(CCCCn4ccnn4)cc3)co2)cc1"
assay_endpoint = "residual activity"
value_measured = 101

[[record]]
smi = "O=c1cc(N2CCOCC2)oc2c(-c3ccccc3)cccc12"
assay_endpoint = "residual activity"
value_measured = 112

[[record]]
smi = "O=c1c(-c2ccc(F)cc2)c(-c2ccncc2)[nH]n1-c1ccc(Cl)cc1"
assay_endpoint = "residual activity"
value_measured = 97


====

- STUDY_SYSTEM: EPHA4 (human) (UniProt P54764)
- Sequence (P54764 whole entry, looked up): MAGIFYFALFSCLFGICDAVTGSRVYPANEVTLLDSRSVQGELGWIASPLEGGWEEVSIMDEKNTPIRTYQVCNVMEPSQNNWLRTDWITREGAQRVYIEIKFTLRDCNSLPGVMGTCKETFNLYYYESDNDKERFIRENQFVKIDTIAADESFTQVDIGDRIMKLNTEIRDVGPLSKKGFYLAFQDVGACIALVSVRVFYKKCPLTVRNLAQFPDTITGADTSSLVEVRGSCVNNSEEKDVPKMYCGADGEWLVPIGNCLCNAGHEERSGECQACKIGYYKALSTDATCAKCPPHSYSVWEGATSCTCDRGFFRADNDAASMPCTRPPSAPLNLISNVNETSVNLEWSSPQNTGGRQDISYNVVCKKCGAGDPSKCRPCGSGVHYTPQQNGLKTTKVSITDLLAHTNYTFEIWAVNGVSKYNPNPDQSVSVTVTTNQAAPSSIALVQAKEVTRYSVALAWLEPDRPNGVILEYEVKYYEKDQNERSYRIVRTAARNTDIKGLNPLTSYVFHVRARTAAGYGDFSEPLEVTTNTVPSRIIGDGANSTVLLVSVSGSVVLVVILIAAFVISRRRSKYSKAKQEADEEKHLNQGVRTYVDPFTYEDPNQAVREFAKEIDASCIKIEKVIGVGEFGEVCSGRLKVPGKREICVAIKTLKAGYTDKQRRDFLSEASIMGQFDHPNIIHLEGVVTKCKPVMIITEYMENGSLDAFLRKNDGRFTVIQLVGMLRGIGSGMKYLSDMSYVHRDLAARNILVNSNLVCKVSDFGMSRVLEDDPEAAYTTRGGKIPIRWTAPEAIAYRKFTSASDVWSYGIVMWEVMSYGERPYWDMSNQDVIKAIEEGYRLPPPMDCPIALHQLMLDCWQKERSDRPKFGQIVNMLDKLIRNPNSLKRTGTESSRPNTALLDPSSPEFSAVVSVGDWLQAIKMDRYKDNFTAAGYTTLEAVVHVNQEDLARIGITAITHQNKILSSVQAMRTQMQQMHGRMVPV
- EXPERIMENT: radiometric filter-binding kinase assay, Kinase HotSpot
- SETUP_CONDITIONS: compound 0.5 µM; ATP 10 µM
ASSAY_ENDPOINT: residual activity (%)

[[record]]
smi = "COc1cc2c(cc1OC)-c1[nH]nc(Nc3cccc(F)c3)c1C2"
value_measured = 93.3

[[record]]
smi = "CCOc1cc2ncnc(Nc3cccc(Br)c3)c2cc1OCC"
value_measured = 75.1

[[record]]
smi = "O=c1[nH]c2ccccc2n1C1CCN(Cc2ccc(-c3nc4cc5[nH]cnc5cc4nc3-c3ccccc3)cc2)CC1"
value_measured = 97.1

[[record]]
smi = "O=c1cc(N2CCOCC2)oc2c(-c3ccccc3)cccc12"
value_measured = 99.2

[[record]]
smi = "COc1cc2c(N3CCN(C(=O)Nc4ccc(OC(C)C)cc4)CC3)ncnc2cc1OCCCN1CCCCC1"
value_measured = 96.4

[[record]]
smi = "O=C1NC(=O)c2cc(Nc3ccc(F)cc3)c(Nc3ccc(F)cc3)cc21"
value_measured = 94

[[record]]
smi = "O=C(c1ccccc1)c1ccc(N2CCOCC2)cc1O"
value_measured = 103

[[record]]
smi = "N#C/C(=C1/Nc2ccccc2S1)c1ccnc(NCCc2cccnc2)n1"
value_measured = 104

[[record]]
smi = "O=C1NC(=O)c2c1c1c3ccccc3[nH]c1c1[nH]c3cc(Br)ccc3c21"
value_measured = 91.3

[[record]]
smi = "CCc1nc(-c2ccc(OC)cc2)[nH]c1-c1ccncc1"
value_measured = 105


====

- STUDY_SYSTEM: CDK1 CCNB1 (human) (UniProt P06493+P14635)
- Sequence (P06493 whole entry, looked up): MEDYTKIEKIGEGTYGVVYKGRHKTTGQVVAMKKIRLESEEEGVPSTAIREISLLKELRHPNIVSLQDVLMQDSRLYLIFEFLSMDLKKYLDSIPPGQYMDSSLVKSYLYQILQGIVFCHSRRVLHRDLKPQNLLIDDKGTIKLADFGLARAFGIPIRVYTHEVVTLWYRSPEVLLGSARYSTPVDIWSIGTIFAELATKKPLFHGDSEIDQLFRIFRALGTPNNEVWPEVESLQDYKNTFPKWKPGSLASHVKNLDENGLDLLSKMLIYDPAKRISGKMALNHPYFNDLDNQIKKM
- Sequence (P14635 whole entry, looked up): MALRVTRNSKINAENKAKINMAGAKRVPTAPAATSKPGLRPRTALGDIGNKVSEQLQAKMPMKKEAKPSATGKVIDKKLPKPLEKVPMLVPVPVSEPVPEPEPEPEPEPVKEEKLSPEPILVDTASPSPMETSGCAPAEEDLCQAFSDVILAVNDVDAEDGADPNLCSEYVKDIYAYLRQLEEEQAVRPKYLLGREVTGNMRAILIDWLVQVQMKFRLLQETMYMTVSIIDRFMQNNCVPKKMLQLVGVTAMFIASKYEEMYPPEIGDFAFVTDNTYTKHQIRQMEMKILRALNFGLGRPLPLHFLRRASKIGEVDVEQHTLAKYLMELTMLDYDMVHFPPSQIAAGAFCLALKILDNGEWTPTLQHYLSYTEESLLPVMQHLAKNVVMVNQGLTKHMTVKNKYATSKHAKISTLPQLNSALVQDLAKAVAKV
- EXPERIMENT: radiometric filter-binding kinase assay, Kinase HotSpot
- SETUP_CONDITIONS: compound 0.5 µM; ATP 10 µM
Items are presented alongside their recorded residual activity.
ASSAY_ENDPOINT: residual activity (%)

[[record]]
smi = "FC(F)(F)c1ccc(/C=C/c2nc(COc3ccc(CCCCn4ccnn4)cc3)co2)cc1"
value_measured = 93.8

[[record]]
smi = "N#Cc1c(NC(=O)c2cccc3ccccc23)sc2c1CCCC2"
value_measured = 111

[[record]]
smi = "O=C(O)c1ccc2c3c1cccc3c(=O)n1c3ccccc3nc21"
value_measured = 65

[[record]]
smi = "O=S(=O)(NCCNC/C=C/c1ccc(Br)cc1)c1cccc2cnccc12"
value_measured = 93.3

[[record]]
smi = "COc1cccc(-c2cc(=O)c3ccccc3o2)c1N"
value_measured = 99.8

[[record]]
smi = "O=c1cc(N2CCOCC2)oc2c(-c3ccccc3)cccc12"
value_measured = 115

[[record]]
smi = "O=C1NC(=O)c2c1c1c3ccccc3[nH]c1c1[nH]c3cc(Br)ccc3c21"
value_measured = 47.8

[[record]]
smi = "N#C/C(=C1/Nc2ccccc2S1)c1ccnc(NCCc2cccnc2)n1"
value_measured = 96.8

[[record]]
smi = "CCCCc1c(-c2ccc(O)cc2)[nH]c2nccnc12"
value_measured = 45.2

[[record]]
smi = "O=c1c2ccccc2[nH]c(=S)n1CCN1CCC(=C(c2ccc(F)cc2)c2ccc(F)cc2)CC1"
value_measured = 83

[[record]]
smi = "CCc1nc(-c2ccc(OC)cc2)[nH]c1-c1ccncc1"
value_measured = 102

